Experiment: Half life in BALB/c mouse at 20 mg/kg, po
Assay type: ADME, organism-based
Parameters: dose 20 mg/kg, route oral
Settings: in vivo
property-measured: half-life (h)
// note: answer is a bare numeric in h

Form field: reported half-life of CC(C)(O)C1CCN(Cc2ccc3nc(-c4c(F)ccc5[nH]ccc45)nc(N4CCOCC4)c3n2)CC1 2.9

---

Test: AUC in BALB/c mouse at 20 mg/kg, po
Assay type: ADME, organism-based
Design: dose 20 mg/kg, route oral
Conditions: plasma
property-measured: AUC (µM·h)
// note: answer is a bare numeric in µM·h

Form field: reported AUC of CC(C)(O)C1CCN(Cc2ccc3nc(-c4c(F)ccc5[nH]ccc45)nc(N4CCOCC4)c3n2)CC1 13
